# credit: patent US20260098102A1

Record form. Attribute: EC50 (read off the curve). Fill in for each entry.
target: T1, human SIRPA_V6 (human, UniProt P78324 31-504); experiment: cell-based ELISA on 293α cells expressing FLAG-tagged SIRPA_V6; Abs 490 normalized to FLAG tag [ii]
T1 construct: FLAG-tagged (pFLAG V5-DEST), on 293α cells; also called human SIRPA Variant 6
T1 sequence (P78324 31-504 S105P limits assumed): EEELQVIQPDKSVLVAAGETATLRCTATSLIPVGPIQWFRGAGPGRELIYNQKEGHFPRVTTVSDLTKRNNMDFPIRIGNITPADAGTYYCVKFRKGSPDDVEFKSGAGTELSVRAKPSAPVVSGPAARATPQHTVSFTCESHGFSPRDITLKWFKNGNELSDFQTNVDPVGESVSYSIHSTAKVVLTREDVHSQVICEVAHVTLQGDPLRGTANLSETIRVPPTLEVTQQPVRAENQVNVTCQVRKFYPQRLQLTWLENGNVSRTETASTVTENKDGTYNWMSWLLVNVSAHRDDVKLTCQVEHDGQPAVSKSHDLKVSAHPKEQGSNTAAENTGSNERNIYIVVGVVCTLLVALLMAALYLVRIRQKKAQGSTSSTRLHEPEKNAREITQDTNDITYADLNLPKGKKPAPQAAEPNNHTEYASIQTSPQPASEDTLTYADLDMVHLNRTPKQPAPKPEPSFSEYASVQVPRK

Before answering, review these 2 worked examples.
[
  {
    "binder": "humanized anti-SIRPA antibody hD13_H2L3 (antibody, human IgG4 S228P, kappa, F234A L235A, V domains shown, hH2 heavy chain (IgG4proFALA) and hL3 kappa light chain; also called H2L3 antibody) VH: EVQLVESGGGVVQPGRSLRLSCAASGFTFSDYGMIWVRQAPGKGLEWVASISSSSSYIYYADSVKGRFTISRDNSKNTLYLQMNSLRAEDTAVYYCARRYYGFNYPFDYWGQGTMVTVSS VL: DTQLTQSPSSLSASVGQRVTITCGASKSVRTYMHWYQQKPGKQPKLLIYSASNLEAGVPSRFSGSGSGTDFTLTISSLQPEDFATYYCQQSNEPPYTFGQGTKLEIKR",
    "EC50 (read off the curve)": "~0.04 µg/mL"
  },
  {
    "binder": "human chimeric anti-SIRPA antibody cD13 (antibody, human IgG4 S228P, kappa, F234A L235A, V domains shown, Human IgG4proFALA heavy chain, human kappa light chain; also called cD13 (IgG4pf); human chimeric antibody D13) VH: EVQLVESGGGLVQPGRSLKLSCLASGFTFSDYGMIWVRQAPGKGLEWVASISSSSSYIYYADTVKGRFTISRENAKNTLFLHMTSLRSEDTALYYCARRYYGFNYPFDYWGQGVMVTVSS VL: DTVLTQSPALAVSLGQRVTISCGASKSVRTYMHWYQQKSGQQPKLLIYSASNLEAGVPSRFSGSGSGTDFTLTIDPVEADDIANYYCQQSNEPPYTFGAGTKLELKR",
    "EC50 (read off the curve)": "~0.04 µg/mL"
  }
]

Continue with the next binder.
[in] Please report the recorded EC50 (read off the curve) for humanized anti-SIRPA antibody hD13_H1L4 (antibody, human IgG4 S228P, kappa, F234A L235A, V domains shown, hH1 heavy chain (IgG4proFALA) and hL4 kappa light chain; also called hD13_HIL4; hD13_HIL4h) VH: QVQLVESGGGVVQPGRSLRLSCAASGFTFSDYGMIWVRQAPGKGLEWVASISSSSSYIYYADSVKGRFTISRDNSKNRLYLQMNSLRAEDTAVYYCARRYYGFNYPFDYWGQGTMVTVSS VL: DTVLTQSPDSLAVSLGQRATINCGASKSVRTYMHWYQQKPGQQPKLLIYSASNLEAGVPSRFSGSGSGTDFTLTISSLQAEDVAVYYCQQSNEPPYTFGQGTKVEIKR .
[out] ~0.04 µg/mL
